# protocol: Cytotoxicity determination in HepG2.2.15 cells (CCK-8 cell viability)
# Assay type: cell-based
# settings: human, 6 days treatment, CCK-8 assay, highest concentration 100 uM
Catalogue of CC50 at 6 days values
measure name: CC50 at 6 days

# molecule, meas value
rows = [
    ("CCOC(=O)C1=C(CN2CC(F)(F)[C@H]3[C@@H]2CCN3CCOC(C)C(=O)O)NC(c2nccs2)=N[C@H]1c1cccc(F)c1C (single isomer, unassigned) [Compound 148]", "34.1 µM"),
    ("COC(=O)C1=C(CN2CC(F)(F)[C@@H]3[C@H]2CON3CCC(C)(C)C(=O)O)NC(c2nccs2)=N[C@H]1c1cccc(F)c1Cl (single isomer, unassigned) [Compound 170]", "> 25 µM"),
    ("CCOC(=O)C1=C(CN2CC(F)(F)[C@@H]3CN(C(=O)C(C)(C)C(=O)O)C[C@@H]32)NC(c2nccs2)=N[C@H]1c1cccc(F)c1C (single isomer, unassigned) [Compound 9A]", "57.8 µM"),
    ("CCOC(=O)C1=C(CN2CC(F)C3C(=O)N(CC(C)(C)C(=O)O)CC32)NC(c2nccs2)=N[C@H]1c1cccc(F)c1C (some centres unmarked) [Compound 186]", "66.9 µM"),
    ("CCOC(=O)C1=C(CN2CC(F)(F)[C@@H]3C(=O)N(CC4(C(=O)O)CC4)C[C@@H]32)NC(c2nccs2)=N[C@H]1c1cccc(F)c1C (single isomer, unassigned) [Compound 184]", "48.3 µM"),
]

----------
# protocol: Cytotoxicity determination in HepG2.2.15 cells (CCK-8 cell viability)
# Assay type: cell-based
# settings: human, 6 days treatment, CCK-8 assay, highest concentration 100 uM
# Procedure: HepG2.2.15 (the HepG2.2.15 cell line can be produced by transfection of the HepG2 cell line as described in Sells, Chen, and Acs 1987 (Proc. Natl. Acad. Sci. USA 84: 1005-1009), and the HepG2 cell line is available from ATCC® under number HIB-8065™) […] Cell viability was determined by CCK-8 assay. […] The absorbance at 450 nm wavelength and the absorbance at 630 nm wavelength as reference was measured. 2) DATA Analysis EC50 and CC50 values are calculated by the GRAPTIPAD PRISM software.
Documented CC50 at 6 days across a set of compounds
measure name: CC50 at 6 days (µM)

# compound, measure name, rel, meas value
records = [
    ("[2H]C([2H])(CC(C)(C)C(=O)O)N1CC[C@H]2[C@@H]1C(F)(F)CN2CC1=C(C(=O)OCC)[C@H](c2cccc(F)c2C)N=C(c2nccs2)N1 (single isomer, unassigned) [Compound 137]", "CC50 at 6 days", "=", 21.8),
    ("CCOC(=O)C1=C(CN2CC(F)(F)[C@@H]3NCC[C@@H]32)NC(c2nccs2)=N[C@H]1c1cccc(F)c1C (single isomer, unassigned) [Compound 103]", "CC50 at 6 days", "=", 19.8),
    ("CCOC(=O)C1=C(CN2CC(F)(F)[C@H]3[C@@H]2CCN3CCC(C)(C)C(=O)O)NC(c2nccs2)=N[C@H]1c1ccc(F)cc1Cl (single isomer, unassigned) [Compound 141]", "CC50 at 6 days", "=", 26.7),
    ("CCOC(=O)C1=C(CN2CC(F)(F)[C@@H]3[C@H]2CN(C)N3CCC(C)(C)C(=O)O)NC(c2nccs2)=N[C@@H]1c1ccc(F)nc1C (single isomer, unassigned) [Compound 96]", "CC50 at 6 days", ">", 100),
    ("CCOC(=O)C1=C(CN2CC(F)(F)[C@@H]3[C@H]2CN(C(=O)C(C)C)N3CCC(C)(C)C(=O)O)NC(c2nccs2)=N[C@H]1c1cccc(F)c1C (single isomer, unassigned) [Compound 74]", "CC50 at 6 days", "=", 16.6),
]
